Recorded size (size by intensity, average ± standard deviation) for the following molecules
Assay Remarks: Liposome size by intensity, dynamic light scattering (silyl-DOTAP liposomes)
Format: physicochemical
Measurement Context: three liposome solutions, 1 mg/mL in Milli Q water, thin film hydration/bath sonication, DLS; all trials

[
  {
    "Molecule": "C[N+](C)(C)CC(COC(=O)CCCCC[Si](C)(C)C1CCCCC1)OC(=O)CCCCC[Si](C)(C)C1CCCCC1 (stereo not shown)",
    "Result": "188 ± 16 nm"
  }
]

Look at this molecule and give its reported size (size by intensity, average ± standard deviation). C[N+](C)(C)CC(COC(=O)CCCCC[Si](C)(C)c1ccccc1)OC(=O)CCCCC[Si](C)(C)c1ccccc1 (stereo not shown)
448 ± 110 nm

Proceed to C[N+](C)(C)CC(COC(=O)CCCCCCC[Si](C)(C)CCc1ccccc1)OC(=O)CCCCCCC[Si](C)(C)CCc1ccccc1 (stereo not shown)
275 ± 82 nm

Cool, now C[N+](C)(C)CC(COC(=O)CCCCCCC[Si](C)(C)CCCc1ccccc1)OC(=O)CCCCCCC[Si](C)(C)CCCc1ccccc1 (stereo not shown)
106 ± 35 nm

====

In this section, each of the compounds is paired with its reported size (size by intensity, average ± standard deviation).
Assay Remarks: Liposome size by intensity, dynamic light scattering (silyl-DOTAP liposomes)
Assay type: physicochemical
Measurement Context: three liposome solutions, 1 mg/mL in Milli Q water, thin film hydration/bath sonication, DLS; all trials
Reply numerically in nm, unit not repeated.

Answered cases to consult:
[
  {
    "Compound": "C[N+](C)(C)CC(COC(=O)CCCC[Si](C)(C)CCc1ccccc1)OC(=O)CCCC[Si](C)(C)CCc1ccccc1 (centres unmarked)",
    "Readout Number": 198
  },
  {
    "Compound": "C[N+](C)(C)CC(COC(=O)CCCCCCC[Si](C)(C)c1ccccc1)OC(=O)CCCCCCC[Si](C)(C)c1ccccc1 (centres unmarked)",
    "Readout Number": 397
  },
  {
    "Compound": "CCCC[Si](C)(C)CCCCCCCC(=O)OCC(C[N+](C)(C)C)OC(=O)CCCCCCC[Si](C)(C)CCCC (centres unmarked)",
    "Readout Number": 198
  },
  {
    "Compound": "C[N+](C)(C)CC(COC(=O)CCCC[Si](C)(C)c1ccccc1)OC(=O)CCCC[Si](C)(C)c1ccccc1 (centres unmarked)",
    "Readout Number": 226
  },
  {
    "Compound": "CCCCCCCCC[Si](C)(C)CCCCCCC(=O)OCC(C[N+](C)(C)C)OC(=O)CCCCCC[Si](C)(C)CCCCCCCCC (centres unmarked)",
    "Readout Number": 221
  }
]

Give the measured size (size by intensity, average ± standard deviation) of CCCCCCCC[Si](C)(C)CCCCC(=O)OCC(C[N+](C)(C)C)OC(=O)CCCC[Si](C)(C)CCCCCCCC (centres unmarked) .
171

Entry to check: C[N+](C)(C)CC(COC(=O)CCCCCCC[Si](C)(C)C1CCCCC1)OC(=O)CCCCCCC[Si](C)(C)C1CCCCC1 (centres unmarked)
199

Next compound up: CCCCCCCCCCC[Si](C)(C)CCCCC(=O)OCC(C[N+](C)(C)C)OC(=O)CCCC[Si](C)(C)CCCCCCCCCCC (centres unmarked)
225

// same read-out, input: CCCCCCCC[Si](C)(C)CCCCCCCC(=O)OCC(C[N+](C)(C)C)OC(=O)CCCCCCC[Si](C)(C)CCCCCCCC (centres unmarked)
221
